Origin of measurements: patent US4032525A

test: Catalepsy Test; type: in vivo, rats; settings: rat, in vivo, ip; rats, intraperitoneally; observed every 30 minutes for 6 hours; read-out: ED50 (dose at which 50% of the animals show catalepsy)
Entries annotated with measured ED50 at 6 h
Field format: number, assumed mg/kg, no unit text.

Answered cases to consult:
In [3]: df
Out[3]:
                                   molecule  value_observed
0  Cc1ccc2c(c1)CC(N1CCN(CCN3CCOC3=O)CC1)c1cc(F)ccc1O2 (centres unmarked) [F]              30
1  Cc1ccc2c(c1)CC(N1CCN(CCN3CCOC3=O)CC1)c1cc(C)ccc1O2 (centres unmarked) [D]              14
2  CN(C)CCCN1c2ccccc2Sc2ccc(Cl)cc21 [Chlorpromazine, reference compound]               6

With those in mind, consider the next molecule.
Give recorded ED50 at 6 h. O=C1OCCN1CCN1CCN(C2Cc3cc(Cl)ccc3Oc3ccccc32)CC1 (centres unmarked) [G]
50
